test: recombinant barcode read abundance after kanamycin selection (control-corrected) (log10(CPM+1)); higher = more efficient recombination; sequences stand for … in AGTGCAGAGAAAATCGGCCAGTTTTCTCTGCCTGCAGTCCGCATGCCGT…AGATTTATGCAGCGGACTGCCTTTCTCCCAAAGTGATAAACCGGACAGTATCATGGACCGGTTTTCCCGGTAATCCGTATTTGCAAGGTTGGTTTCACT; site = the 11-nt target
Provide the recorded recombinant barcode read abundance (log10) for the entries that follow.
Numbers only.

- GAGCCGCCTTGGGTTCTAACCTGTTGCCG (site GAGCCACCTCA): 0.118
- CGCACGTCTTGGGTTCTAACCTGTTGCTT (site CACAAGTCTAA): 0.185
- TTAGTTGCTTGGGTTCTAACCTGTTGCCT (site TTAGTAGCTAG): 0.225
- TATAGCTCTTGGGTTCTAACCTGTTGCCT (site GATAGCTCTAG): 0.106
- ACATGTCCTTGGGTTCTAACCTGTTGCTT (site ACATGTCCTAA): 0.333

Give recombinant barcode read abundance (log10) for all sequences that follow.
1. GACTTTCCTTGGGTTCTAACCTGTTGCAT (site GACTTTCCTAT)
2. TAAGGTCCTTGGGTTCTAACCTGTTGCTA (site GGAGGTCCTTA)
3. AGGCCGTCTTGGGTTCTAACCTGTTGCGT (site AGGCCGTCTAC)
4. CTATGGACTTGGGTTCTAACCTGTTGCAA (site CTATGGACTAT)
5. CAGTTGTCTTGGGTTCTAACCTGTTGCCT (site CAGTTGTCTAG)

1. 0.101
2. 0.0326
3. 2.43
4. 0.0174
5. 1.75

====

test: recombinant UMI read abundance after kanamycin selection (control-corrected) (log10(CPM+1)); higher = more efficient recombination; extreme values may be limits of the assay; sequences stand for … in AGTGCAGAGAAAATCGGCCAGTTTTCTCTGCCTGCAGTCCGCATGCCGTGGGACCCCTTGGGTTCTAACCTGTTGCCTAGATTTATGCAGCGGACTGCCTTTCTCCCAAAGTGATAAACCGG…AGGTTGGTTTCACT; site = the 11-nt donor
// n strictly below 0.7 in recombinant UMI read abundance (log10); y otherwise

Past entries and their recorded results:
• GGAGGCCCATGGACCGGTTTTCCCGGTAATCCGTATTTGAT (site GGAGGCCCTAT) = y
• GGGATCTCATGGACCGGTTTTCCCGGTAATCCGTATTTGGG (site GGGATCTCTCC) = y
• CAAGGCTCATGGACCGGTTTTCCCGGTAATCCGTATTTGAA (site CAATGCTCTTT) = n
• TGTAGTGCATGGACCGGTTTTCCCGGTAATCCGTATTTGCG (site TGTAGTGCTCG) = y
• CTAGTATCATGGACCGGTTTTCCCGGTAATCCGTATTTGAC (site CTATTACCTGT) = n

Hi, just wondering whether GAAGATTCATGGACCGGTTTTCCCGGTAATCCGTATTTGTA (site GAAGATTCTAA) shows recombinant UMI read abundance (log10) of 0.7 or higher. n

Hi, just wondering whether CTACTATCATGGACCGGTTTTCCCGGTAATCCGTATTTGGA (site CTACTAACTTC) shows recombinant UMI read abundance (log10) of 0.7 or higher. n

Hi, just wondering whether CCGCACACATGGACCGGTTTTCCCGGTAATCCGTATTTGAA (site CCGCACACTTT) shows recombinant UMI read abundance (log10) of 0.7 or higher. y

Hi, just wondering whether GGCGTAGCATGGACCGGTTTTCCCGGTAATCCGTATTTGTG (site GGCGTAGCTCA) shows recombinant UMI read abundance (log10) of 0.7 or higher. y

Hi, just wondering whether GAGTAGGCATGGACCGGTTTTCCCGGTAATCCGTATTTGAT (site GAGTAGGCTAT) shows recombinant UMI read abundance (log10) of 0.7 or higher. y

Hi, just wondering whether CAGTCGTCATGGACCGGTTTTCCCGGTAATCCGTATTTGGG (site CAGTCGTCTCC) shows recombinant UMI read abundance (log10) of 0.7 or higher. n
